Test system: hypoxia-inducible endogenous VEGF expression
Test: Assay to evaluate effect on hypoxia-inducible endogenous VEGF expression (VEGF ELISA, HeLa cells)
Format: cell-based
Conditions: Homo sapiens; HeLa cells cultured 24-48 hours under hypoxic conditions (1% O2, 5% CO2); VEGF in conditioned media by ELISA; read-out: ELISA EC50 (effective concentration required to lower the amount of VEGF translation by 50%)
pEC50: −log10 of the molar value.
I'd appreciate it if you could supply pEC50 values for the items below.

Query string: What does the record list as pEC50 for O=C(Oc1cc(Cl)c(Cl)cc1Cl)N1CCCC1 ?
Result string: < 4.52

Query string: What does the record list as pEC50 for Cc1ccc2cc(OC(=O)N3CCCCC3)ccc2n1 ?
Result string: < 4.52

Query string: What does the record list as pEC50 for Cc1ccc(OC(=O)N2CC(C)CC(C)C2)c(Br)c1 (stereo not shown) ?
Result string: < 4.52

Query string: What does the record list as pEC50 for O=C(Oc1ncc2ccccc2c1Cl)N1CCCCC1 ?
Result string: 5.65

Query string: What does the record list as pEC50 for O=C(Oc1ccc2ccccc2c1Br)N1CCC(C(O)(c2ccccc2)c2ccccc2)CC1 ?
Result string: 7.70

Query string: What does the record list as pEC50 for CC1CCN(C(=O)Oc2cc3ccccc3cn2)CC1 ?
Result string: < 4.52

Query string: What does the record list as pEC50 for CC(=O)c1c(OC(=O)N2CCC(Cc3ccccc3)CC2)ccc2ccccc12 ?
Result string: 5.59

Query string: What does the record list as pEC50 for O=C(Oc1cc2ccccc2cn1)N1CCCCC1 ?
Result string: < 4.52

Query string: What does the record list as pEC50 for CC1CCCC(C)N1C(=O)Oc1cc2ccccc2cn1 (stereo not shown) ?
Result string: < 4.52

Query string: What does the record list as pEC50 for COc1ccc2ccc(OC(=O)N3CCC(C(O)(c4ccccc4)c4ccccc4)CC3)c(Br)c2c1 ?
Result string: < 5.00

Query string: What does the record list as pEC50 for O=C(Oc1ccccc1Br)N1CCC(Cc2ccccc2)CC1 ?
Result string: < 4.52

Query string: What does the record list as pEC50 for COc1ccc2ccc(OC(=O)N3CCN(c4ccccc4)CC3)c(Br)c2c1 ?
Result string: < 5.00

Query string: What does the record list as pEC50 for O=C(Nc1ccc2ccccc2c1)N1CCCCC1 ?
Result string: < 5.00

Query string: What does the record list as pEC50 for O=C(Oc1ccc2ccccc2c1Br)N1CCC2(CC1)OCCO2 ?
Result string: 5.82

Query string: What does the record list as pEC50 for Cc1ccc(OC(=O)N2CCC(Cc3ccccc3)CC2)c(Br)c1 ?
Result string: < 4.52

Query string: What does the record list as pEC50 for CC1CC(C)CN(C(=O)Oc2c(Cl)cc(Cl)cc2Cl)C1 (stereo not shown) ?
Result string: < 4.52

Query string: What does the record list as pEC50 for O=C(Oc1c(Cl)cc(Cl)cc1Cl)N1CCCc2ccccc21 ?
Result string: < 4.52

Query string: What does the record list as pEC50 for O=C(Nc1ccc2ccccc2c1Br)N1CCN(c2ccccc2)CC1 ?
Result string: < 5.00

Query string: What does the record list as pEC50 for CC(=O)c1c(OC(=O)N2CCCCC2C)ccc2ccccc12 (stereo not shown) ?
Result string: < 4.52

Query string: What does the record list as pEC50 for O=C(Oc1ccccc1Br)N1CCc2cccnc21 ?
Result string: < 4.52

Query string: What does the record list as pEC50 for O=C(Oc1ccc2ccccc2c1Br)N1CCC(Cc2ccccc2)CC1 ?
Result string: 6.59

Query string: What does the record list as pEC50 for CCN(CC)C(=O)Oc1ccc2ccccc2c1Br ?
Result string: 5.70

Query string: What does the record list as pEC50 for CC1CC(C)CN(C(=O)Nc2ccc3ccccc3c2Br)C1 (stereo not shown) ?
Result string: < 5.00

Query string: What does the record list as pEC50 for O=C(Oc1ccc2ccccc2c1Br)N1CCCCC1 ?
Result string: 6.57

Query string: What does the record list as pEC50 for CC1CC(C)CN(C(=O)Oc2cc(Cl)c(Cl)cc2Cl)C1 (stereo not shown) ?
Result string: 4.95

Source listed as patent US8143257B2.
